Reported Effect values for a set of molecules
- Test system: Rattus norvegicus
- experiment: Ratio of myocardial infarct zone to area at risk […] in ischemic myocardium damage rat model (Cardioprotective effect) at 0.3 mg/Kg
- Assay type: functional
Reply with the number, then its unit.

// solved cases for Effect follow
# molecule, Effect
data = [
    ("COC(OC)C1(C)Oc2ccc([N+](=O)[O-])cc2C(/N=C(\\NC#N)Nc2ccc(Cl)cc2)[C@@H]1O (single isomer, unassigned)", "46%"),
    ("CC1(C)COC([C@]2(C)Oc3ccc(N)cc3[C@H](/N=C(\\NC#N)NCc3ccccc3)[C@@H]2O)OC1", "42%"),
    ("COc1ccc(CN/C(=N/C2c3cc(N)ccc3OC(C)(C(OC)OC)[C@H]2O)NC#N)cc1 (single isomer, unassigned)", "37%"),
    ("COC(OC)C1(C)Oc2ccc(NS(C)(=O)=O)cc2C(/N=C(\\NC#N)NCc2ccccc2)[C@@H]1O (single isomer, unassigned)", "35%"),
    ("COC(OC)[C@@]1(C)Oc2ccc([N+](=O)[O-])cc2C(N/C(=N/C#N)NCc2ccccc2)[C@H]1O (single isomer, unassigned)", "38%"),
]

Query: Effect; subject: COC(OC)[C@]1(C)Oc2ccc([N+](=O)[O-])cc2[C@@H](/N=C(\NC#N)Nc2ccc(Cl)cc2)[C@@H]1O
37%

What do we get for COC(OC)[C@]1(C)Oc2ccc(N)cc2[C@H](/N=C(\NC#N)NCc2ccccc2)[C@H]1O ?
38%

Similarly, CC1(C2OCCO2)Oc2ccc(N)cc2C(/N=C(\NC#N)NCc2ccccc2)[C@@H]1O (single isomer, unassigned) ?
32%

* * *

- Tested on: Rattus norvegicus
- experiment: Ratio of myocardial infarct zone to area at risk (IZ/AAR) in ischemic myocardium damage rat model (Cardioprotective effect) at 0.3 mg/Kg
- Assay type: functional
# Effect per entry
A number alone suffices; assume %.

Solved entries (count: 5):
# molecule, Effect / %
data = [
    ("COC(OC)[C@]1(C)Oc2ccc(NC(C)=O)cc2[C@H](/N=C(\\NC#N)NCc2ccccc2)[C@@H]1O", 45),
    ("COc1ccc(N/C(=N/[C@H]2c3cc([N+](=O)[O-])ccc3O[C@@](C)(C(OC)OC)[C@H]2O)NC#N)cc1", 43),
    ("CC1(C)Oc2ccc(C#N)cc2[C@@H](/N=C(\\NC#N)Nc2ccc(Cl)cc2)[C@@H]1O", 39),
    ("CC1(C2OCCO2)Oc2ccc(N)cc2C(/N=C(\\NC#N)NCc2ccccc2)[C@@H]1O (single isomer, unassigned)", 52),
    ("COC(OC)C1(C)Oc2ccc(NS(C)(=O)=O)cc2C(/N=C(\\NC#N)NCc2ccccc2)[C@@H]1O (single isomer, unassigned)", 43),
]

Now let's try a different one.
Endpoint output: Effect of COC(OC)C1(C)Oc2ccc([N+](=O)[O-])cc2C(/N=C(\NC#N)Nc2ccc(Cl)cc2)[C@@H]1O (single isomer, unassigned) . Value?
46

* * *

Measured Effect, listed per entry for reference.
- Tested on: Rattus norvegicus
- experiment: Ratio of myocardial infarct zone to area at risk […] in ischemic myocardium damage rat model (Cardioprotective effect) at 0.3 mg/Kg
- Format: functional

Some solved cases for reference:
# smilesEntry, Effect
records = [
    ("COC(OC)[C@]1(C)Oc2ccc(N)cc2[C@@H](/N=C(\\NC#N)NCc2ccccc2)[C@@H]1O", "39%"),
    ("COC(OC)[C@]1(C)Oc2ccc(NC(C)=O)cc2[C@H](/N=C(\\NC#N)NCc2ccccc2)[C@@H]1O", "41%"),
]

Kindly consider the entry below.
# input compound: CC1(C)Oc2ccc(C#N)cc2[C@@H](/N=C(\NC#N)Nc2ccc(Cl)cc2)[C@@H]1O ; wanted: its Effect
39%
